The measurements presented in this section are drawn from patent US20250340623A1.

Target: alpha-synuclein fibrils (UniProt P37840 1-140)
Experiment: SPR, captured mAb
Kind request: treat 20000 M⁻¹ s⁻¹ as inclusive, so kon at 20000 M⁻¹ s⁻¹ or higher is Fulfilled, anything lower is Not fulfilled.

binder: ACI-8032-6304F3-Ab1 (antibody, V domains shown, mouse hybridoma mAb; VH/VL only; also called 6304F3D12) VH: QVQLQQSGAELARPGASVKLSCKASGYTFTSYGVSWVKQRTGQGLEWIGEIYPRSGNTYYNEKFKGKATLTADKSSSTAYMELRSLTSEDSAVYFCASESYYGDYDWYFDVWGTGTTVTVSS VL: DVLMTQIPLSLPVSPGDQVSISCRSSQSIVHSNGNTYLEWYLQKPGQSPKPLIYKVSNRFSGVPDRFSGSGSGTDFTLKISRVEAEDLGVYYCFQGSHVPPTFGGGTKLEIK
category: Not fulfilled

binder: ACI-8033-6403A4-Ab1 (antibody, V domains shown, mouse hybridoma mAb; VH/VL only; also called 6403A4A3) VH: EVQLVESGGGLVQPKGSLKLSCAASGFSFNTYAMNWVRQAPGKGLEWVARIRSKSNNYTTYYADSVKDRFTISRDDSESMLYLQMNNLKTEDTAMYYCVRTMDYWGQGTSVTVSS VL: QIVLTQSPAIMSASLGEEITLTCSASSSISYMHWYQQKSGTSPKLLIHSTFNLASGVPSRFSGSGSGTFYSLTISSVEAEDAADYYCHQWSSYYTFGGGTKLEIK
category: Not fulfilled

binder: ACI-7079-3103D9-Ab1 (antibody, V domains shown, mouse hybridoma mAb; VH/VL only; also called 3103D9C9) VH: QVSLKESGPGILQPSQTLSLTCSFSGFSLSTFGMGVGWIRQPSGKGLDWLTHIWWDDDKYYNPGLKSRLTISKDTSKNQVFLEIANVDTADTATYYCARIGDYYGTRGYFDVWGTGTTVTVSS VL: DIVMTQSPSSLTMSLGQTVTMSCKSSQSLLNSSNQKNHLAWYQQRPGQSPKLLVYFASTRESGVPERFIGGGSGTDFTLTISNVQSEDLTDYFCQQHYSTPYTFGGGTKLEIK
category: Fulfilled

binder: ACI-8032-6301C8-Ab2 (antibody, V domains shown, mouse hybridoma mAb; VH/VL only; also called 6301C8G12) VH: QVQLQQSGAELARPGTSVKLSCKASGYTFTTYGISWVKQRTGQGLEWIGEIYPRSGNTYYNEKFKGKATLTADKPSSTAYMELRSLTSEDSAVYFCASESYYGDYAWYFDVWGTGTTVTVSS VL: DVLMTQIPLSLPVSLGDQASISCRSSQSIVHSNGNTYLEWHLQKPGQSPKLLIYEVSNRFSGVPDRFSGSGSGTDFTLNISRVEAEDLGVYYCFQGSHVPPTFGGGTKLEIK
category: Fulfilled

binder: ACI-8033-22E5-Ab1 (antibody, V domains shown, mouse hybridoma mAb; VH/VL only; also called 917.22E5C5F7) VH: EVQLVESGGDLVKPGGSLKLSCAASGFTFSSYGMSWVRQTPDKRLEWVATISNGGSYTYYPDSVKGRFTISRDNAKNTLYLQMSSLKSEDTAMYYCARQLRRDGWYFDVWGTGTTVTVSS VL: EIVLTQSPALMAASPGEKVTITCSVSSSISSSKLHWYQQKSETSPKLWIYGTSNLASGVPVRFSGSGSGTSYSLTISSMEAEDAATYYCQQWSSYPLTFGAGTKLELK
category: Not fulfilled
